Method Notes: Clearance in rat liver microsomes
Assay type: ADME, microsome
Experimental Readout: CLhep predicted (mL/min/kg)

Structure Smiles String | Endpoint Unit | CLhep predicted
C[C@H]1[C@H](F)C[C@@H](C(=O)NCc2cc(-c3cnc(C(F)(F)F)nc3)nc(C3CC3)n2)N1S(=O)(=O)c1ccc(F)cc1 | mL/min/kg | 22
O=C(NCc1cc(-c2ccc(C(F)(F)F)nc2)ncn1)[C@@H]1CCN1S(=O)(=O)c1ccc(F)cc1 | mL/min/kg | 27
C[C@H]1[C@H](F)C[C@@H](C(=O)NCc2cc(-c3cnc(C(F)(F)F)nc3)ncc2F)N1S(=O)(=O)c1ccc(F)cc1 | mL/min/kg | 17
O=C(NCc1cc(-c2ccc(C(F)(F)F)nc2)ncn1)[C@@H]1CCCCN1S(=O)(=O)c1ccc(F)cc1 | mL/min/kg | 46
C[C@H]1[C@H](F)C[C@@H](C(=O)NCc2cc(-c3ccc(C(F)(F)F)nc3)ncn2)N1S(=O)(=O)c1ccc(F)cc1 | mL/min/kg | 19
C[C@H]1[C@H](F)C[C@@H](C(=O)NCc2c(F)cnc(-c3cnc(C(F)(F)F)nc3)c2F)N1S(=O)(=O)c1ccc(F)cc1 | mL/min/kg | 36
C[C@H]1[C@H](F)C[C@@H](C(=O)NCc2cc(-c3cnc(C(F)(F)F)nc3)c(F)cn2)N1S(=O)(=O)c1ccc(F)cc1 | mL/min/kg | 18
C[C@H]1CC[C@@H](C(=O)NCc2cc(-c3ccc(C(F)(F)F)nc3)ncn2)N1S(=O)(=O)c1ccc(F)cc1 | mL/min/kg | 47
C[C@H]1[C@H](F)C[C@@H](C(=O)NCc2cc(-c3cnc(C(F)(F)F)nc3)c(Cl)cn2)N1S(=O)(=O)c1ccc(F)cc1 | mL/min/kg | 21
C[C@H]1[C@H](F)C[C@@H](C(=O)NCc2ccnc(-c3cnc(C(F)(F)F)nc3)c2)N1S(=O)(=O)c1ccc(F)cc1 | mL/min/kg | 25

I = C[C@H]1[C@H](F)C[C@@H](C(=O)NCc2cc(-c3cnc(C(F)(F)F)nc3)ncc2C#N)N1S(=O)(=O)c1ccc(F)cc1
II = C[C@@H]1CC[C@@H](C(=O)NCc2cc(-c3ccc(C(F)(F)F)nc3)ncn2)N1S(=O)(=O)c1ccc(F)cc1
III = O=C(NCc1cc(-c2ccc(C(F)(F)F)nc2)ncn1)[C@@H]1C[C@@H](F)CN1S(=O)(=O)c1ccc(F)cc1
Order the entries by their reported CLhep predicted, beginning at the minimum. Please express your ranking as an ordered list of the labels.
III, I, II
(III: 10 mL/min/kg, I: 16 mL/min/kg, II: 30 mL/min/kg)

----------
Method Notes: Kinetic solubility of the compound
Assay type: physicochemical
Cond: read-out: Kinetic_solubility
Experimental Readout: solubility kinetic (µM)

# annotated cases, reported solubility kinetic shown
Structure Smiles String | solubility kinetic [µM]
C[C@H]1[C@H](F)C[C@@H](C(=O)NCc2cc(-c3cnc(C(F)(F)F)nc3)c(C#N)cn2)N1S(=O)(=O)c1ccc(F)cc1 | 123
C[C@H]1[C@H](F)C[C@@H](C(=O)NCc2cc(-c3cnc(C(F)(F)F)nc3)ccn2)N1S(=O)(=O)c1ccc(F)cc1 | 132
C[C@H]1[C@H](F)C[C@@H](C(=O)NCc2cc(-c3ccc(C(F)(F)F)nc3)ncn2)N1S(=O)(=O)c1ccc(F)cc1 | 2

a = C[C@H]1[C@H](F)C[C@@H](C(=O)NCc2cc(-c3cnc(C(F)(F)F)nc3)c(F)cn2)N1S(=O)(=O)c1ccc(F)cc1
b = C[C@H]1[C@H](F)C[C@@H](C(=O)NCc2cc(-c3cnc(C(F)(F)F)nc3)c(Cl)cn2)N1S(=O)(=O)c1ccc(F)cc1
Looking at a and b , which one comes out lower in solubility kinetic terms? API: response body contains the label of the selected item.
b

----------
System: UniProt O75762
Sequence (O75762 whole entry): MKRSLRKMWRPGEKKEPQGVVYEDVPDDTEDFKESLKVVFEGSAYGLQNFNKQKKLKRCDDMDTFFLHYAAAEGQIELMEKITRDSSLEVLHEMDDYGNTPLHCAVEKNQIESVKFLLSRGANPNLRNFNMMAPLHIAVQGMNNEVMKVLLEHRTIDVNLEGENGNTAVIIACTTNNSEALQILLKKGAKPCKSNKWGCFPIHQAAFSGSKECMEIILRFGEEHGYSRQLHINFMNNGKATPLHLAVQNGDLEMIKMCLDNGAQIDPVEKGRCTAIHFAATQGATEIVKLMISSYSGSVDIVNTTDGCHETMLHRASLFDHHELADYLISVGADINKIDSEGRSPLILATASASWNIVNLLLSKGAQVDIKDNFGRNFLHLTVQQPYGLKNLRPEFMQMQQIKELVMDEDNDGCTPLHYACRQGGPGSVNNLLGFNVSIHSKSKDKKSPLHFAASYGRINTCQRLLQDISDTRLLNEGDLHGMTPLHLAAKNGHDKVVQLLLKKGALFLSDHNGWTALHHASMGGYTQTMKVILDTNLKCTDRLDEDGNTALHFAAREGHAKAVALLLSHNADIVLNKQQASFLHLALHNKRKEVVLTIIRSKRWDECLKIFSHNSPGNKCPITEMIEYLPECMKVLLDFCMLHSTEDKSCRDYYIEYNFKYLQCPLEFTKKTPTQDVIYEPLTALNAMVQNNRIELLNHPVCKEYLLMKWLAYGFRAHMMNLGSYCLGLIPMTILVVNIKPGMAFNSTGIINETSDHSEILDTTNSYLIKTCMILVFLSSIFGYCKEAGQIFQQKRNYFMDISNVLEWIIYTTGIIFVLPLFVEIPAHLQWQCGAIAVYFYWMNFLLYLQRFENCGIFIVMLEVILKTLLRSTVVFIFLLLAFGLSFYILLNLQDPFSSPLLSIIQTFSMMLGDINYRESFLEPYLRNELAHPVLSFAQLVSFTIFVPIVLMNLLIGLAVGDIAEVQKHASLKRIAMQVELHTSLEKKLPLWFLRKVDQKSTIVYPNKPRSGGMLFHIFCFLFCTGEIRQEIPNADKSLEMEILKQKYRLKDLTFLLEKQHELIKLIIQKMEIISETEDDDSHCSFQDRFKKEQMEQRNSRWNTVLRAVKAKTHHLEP
Method Notes: Inhibition of human TRPA1 expressed in HEK293 cells assessed as inhibition of cinnamaldehyde-induced Ca2+ influx preincubated for 20 mins followed by cinnamaldehyde induction by FLIPR assay
Experimental Readout: IC50 (µM)

Example cases with answers are listed next.
Structure Smiles String | System | Experimental Readout | Measurement
C[C@H]1[C@H](F)C[C@@H](C(=O)NCc2cc(-c3cnc(C(F)(F)F)nc3)ncn2)N1S(=O)(=O)c1ccc(F)cc1 | UniProt O75762 | IC50 | 0.064
O=C(NCc1cc(-c2ccc(C(F)(F)F)nc2)ncn1)[C@@H]1CCCCN1S(=O)(=O)c1ccc(F)cc1 | UniProt O75762 | IC50 | 2.3
C[C@@H]1CC[C@@H](C(=O)NCc2cc(-c3ccc(C(F)(F)F)nc3)ncn2)N1S(=O)(=O)c1ccc(F)cc1 | UniProt O75762 | IC50 | 0.239
C[C@H]1[C@H](F)C[C@@H](C(=O)NCc2cc(-c3cnc(C(F)(F)F)nc3)ncc2C#N)N1S(=O)(=O)c1ccc(F)cc1 | UniProt O75762 | IC50 | 0.01
C[C@H]1[C@H](F)C[C@@H](C(=O)NCc2cc(-c3ccc(C(F)(F)F)nc3)ncn2)N1S(=O)(=O)c1ccc(F)cc1 | UniProt O75762 | IC50 | 0.179
C[C@H]1[C@H](F)C[C@@H](C(=O)NCc2cc(-c3cnc(C(F)(F)F)nc3)c(F)cn2)N1S(=O)(=O)c1ccc(F)cc1 | UniProt O75762 | IC50 | 0.033
C[C@H]1[C@H](F)C[C@@H](C(=O)NCc2cc(-c3cnc(C(F)(F)F)nc3)ncc2F)N1S(=O)(=O)c1ccc(F)cc1 | UniProt O75762 | IC50 | 0.008
C[C@H]1[C@H](F)C[C@@H](C(=O)NCc2cc(-c3cnc(C(F)(F)F)nc3)c(Cl)cn2)N1S(=O)(=O)c1ccc(F)cc1 | UniProt O75762 | IC50 | 0.013

P = C[C@H]1[C@H](F)C[C@@H](C(=O)NCc2c(F)cnc(-c3cnc(C(F)(F)F)nc3)c2F)N1S(=O)(=O)c1ccc(F)cc1
Q = O=C(NCc1cc(-c2ccc(C(F)(F)F)nc2)ncn1)[C@@H]1C[C@@H](F)CN1S(=O)(=O)c1ccc(F)cc1
Looking at recorded values for IC50, does P or Q come in lower? When you have decided, please share the label of that item.
P

A = O=C(NCc1cc(-c2ccc(C(F)(F)F)nc2)ncn1)[C@@H]1CCN1S(=O)(=O)c1ccc(F)cc1
B = C[C@H]1[C@H](F)C[C@@H](C(=O)NCc2cc(-c3cnc(C(F)(F)F)nc3)ncc2Cl)N1S(=O)(=O)c1ccc(F)cc1
C = O=C(NCc1cc(-c2ccc(C(F)(F)F)nc2)ncn1)[C@@H]1CCCN1S(=O)(=O)c1ccc(F)cc1
Put the items in order so that reported IC50 rises from first to last. Give your ranking as a list of the labels in the requested order.
B, C, A

----------
Method Notes: Protein binding in human plasma
Type: ADME, cell-free
Cond: read-out: PPB (converted)
Experimental Readout: fraction unbound
The response must contain the number and no unit.

I am curious: what fraction unbound value has been reported for `C[C@H]1[C@H](F)C[C@@H](C(=O)NCc2cc(-c3cnc(C(F)(F)F)nc3)ncc2F)N1S(=O)(=O)c1ccc(F)cc1` ?
0.02

----------
Method Notes: Clearance in human liver microsomes
Type: ADME, microsome
Experimental Readout: CLhep predicted (mL/min/kg)

Sample records with CLhep predicted:
Structure Smiles String | CLhep predicted [mL/min/kg]
O=C(NCc1cc(-c2ccc(C(F)(F)F)nc2)ncn1)[C@@H]1CCCN1S(=O)(=O)c1ccc(F)cc1 | 16
C[C@H]1[C@H](F)C[C@@H](C(=O)NCc2cc(-c3ccc(C(F)(F)F)nc3)ncn2)N1S(=O)(=O)c1ccc(F)cc1 | 10
C[C@H]1[C@H](F)C[C@@H](C(=O)NCc2cc(-c3cnc(C(F)(F)F)nc3)c(F)cn2)N1S(=O)(=O)c1ccc(F)cc1 | 13
C[C@H]1[C@H](F)C[C@@H](C(=O)NCc2cc(-c3cnc(C(F)(F)F)nc3)ncc2Cl)N1S(=O)(=O)c1ccc(F)cc1 | 11
C[C@@H]1CC[C@@H](C(=O)NCc2cc(-c3ccc(C(F)(F)F)nc3)ncn2)N1S(=O)(=O)c1ccc(F)cc1 | 19

P = C[C@H]1[C@H](F)C[C@@H](C(=O)NCc2ccnc(-c3cnc(C(F)(F)F)nc3)c2)N1S(=O)(=O)c1ccc(F)cc1
Q = O=C(NCc1cc(-c2ccc(C(F)(F)F)nc2)ncn1)[C@@H]1C[C@H](F)CN1S(=O)(=O)c1ccc(F)cc1
R = O=C(NCc1cc(-c2ccc(C(F)(F)F)nc2)ncn1)[C@@H]1CCCCN1S(=O)(=O)c1ccc(F)cc1
hey, can you rank those compounds up there by CLhep predicted? biggest number first please Form field (ranking): labels in requested order.
R, P, Q

Data provenance is ChEMBL document CHEMBL4043298.
